system: OVCAR-4; test: NCI tumour cell line growth inhibition, 48 h
Calls of active or inactive are those of the source. Rule as the data show it: active = GI50 up to about 1.1 µM and inactive = higher.
Valid outcomes are listed here; reply with one: t for active, f for inactive

Problem: Recorded call for CC1(c2nc3ccccc3[nH]2)CCC(C(N)=O)C(C)(C)O1 (configuration not stated) ?
Result: f

Problem: Recorded call for CC(=O)NC(CCCOC(C)=O)C(=O)NC(CCCOC(C)=O)C(=O)NC(CCCOC(C)=O)C(=O)NC(Cc1ccc([N+](=O)[O-])cc1)C(=O)NCC(=O)OCc1ccccc1 (configuration not stated) ?
Result: f

Problem: Recorded call for O=C(O)C1C(Br)(c2ccccc2)C1(Br)c1ccccc1 (configuration not stated) ?
Result: f

Problem: Recorded call for "Cc1ccccc1N/C(N)=N/C#N" ?
Result: f

Problem: Recorded call for "COC(=O)c1c(O)ccc2[nH]c3c(O)c4ccccc4cc3c12" ?
Result: f

Problem: Recorded call for CCCCCCC/C=C1\CCC(CN(C)C)C1=O (configuration not stated) ?
Result: f

Problem: Recorded call for C=C(C)C1Cc2c(cc3c(c2O)c(=O)c2ccccc2n3C)O1 (configuration not stated) ?
Result: f

Problem: Recorded call for CC1C=CC(=O)C(n2cc(F)c(=O)[nH]c2=O)O1 (configuration not stated) ?
Result: f

Problem: Recorded call for "S=C(NCc1ccccn1)N/N=C/c1ccccn1" ?
Result: t

Problem: Recorded call for Fc1ccccc1C1SCc2nc3cc4ccccc4cc3n21 (configuration not stated) ?
Result: f

Problem: Recorded call for "O=C(N/N=C\c1cccc2ccccc12)Nc1cccc2ccccc12" ?
Result: f

Problem: Recorded call for "CN(OC(=O)CC(=O)c1ccccc1)C(=O)Cc1ccccc1" ?
Result: f

Problem: Recorded call for CCc1ccccc1NC(=O)C(=O)C(C(=O)c1ccc(OC)cc1)c1ccc(OC)cc1 (configuration not stated) ?
Result: f

Problem: Recorded call for "CN1COCc2c1ccc1cc3ccc4c(c3nc21)COCN4S(C)(=O)=O" ?
Result: f

Problem: Recorded call for CCCCSCC(NC(=O)/C=C/c1c(C)[nH]c(=O)[nH]c1=O)C(=O)OC (configuration not stated) ?
Result: f

Problem: Recorded call for "Cc1ccc(C2=C(c3ccccc3)C(Br)(c3ccc(C)cc3)C(c3ccccc3)=C2c2ccc(C)cc2)cc1" ?
Result: f

Problem: Recorded call for "[O-][n+]1ccccc1S" ?
Result: t

Problem: Recorded call for COC(=O)OCC1OC(N2C(=O)NC(=O)C(Br)C2N=[N+]=[N-])CC1OC(=O)OC (configuration not stated) ?
Result: f

Problem: Recorded call for N#CC1Nc2ccccc2[C@@H](O)C1O (some centres not stated) ?
Result: f

Problem: Recorded call for Cc1ccccc1C1OC1C(=O)c1ccccc1N (configuration not stated) ?
Result: f

Problem: Recorded call for Cc1ccc(C)c(NC(=O)CC/C(=N\NC(=O)C(N)=O)C(C)C(=O)c2ccc(O)cc2)c1 (configuration not stated) ?
Result: f

Problem: Recorded call for "CCCCC/C=C\C=C1\C(=O)C=C[C@@H]1C/C=C\CCCC(=O)O" ?
Result: f

Problem: Recorded call for C/C=C1/C[C@@H](C)[C@@](C)(O)C(=O)OCC2=CC[N+]3([O-])CC[C@@H](OC1=O)[C@@H]23 (some centres not stated) [SENECIONINE N-OXIDE] ?
Result: f

Problem: Recorded call for "COc1ccc(NC(=O)NNS(=O)(=O)c2ccc(C)cc2)cc1" ?
Result: f

Problem: Recorded call for "Cn1c(=O)c2c(nc(N/N=C3/SCC(=O)N3Cc3ccccc3)n2C)n(C)c1=O" ?
Result: f

Problem: Recorded call for "Nc1nc(=S)[nH]c2nc3c(c(-c4ccccc4)c12)CCCC3" ?
Result: f

Problem: Recorded call for "O=C(NCCNCCCNC(=O)c1cc(-c2ccccc2)nc2ccccc12)c1cccc(OCc2ccccc2)c1OCc1ccccc1" ?
Result: f

Problem: Recorded call for Cn1nc(C(=O)N2CC(CCl)c3c2cc(N)c2ccccc32)cc1NC(=O)Nc1cc(C(=O)N2CC(CCl)c3c2cc(N)c2ccccc32)nn1C (configuration not stated) ?
Result: t

Problem: Recorded call for "CC(=O)O[C@H]1C[C@H](O[C@H]2[C@@H](O)C[C@H](O[C@H]3[C@@H](O)C[C@H](O[C@H]4CC[C@@]5(C)[C@H](CC[C@@H]6[C@@H]5CC[C@]5(C)[C@@H](C7=CC(=O)OC7)CC[C@]65O)C4)O[C@@H]3C)O[C@@H]2C)O[C@H](C)[C@H]1O[C@@H]1O[C@H](CO)[C@@H](O)[C@H](O)[C@H]1O" ?
Result: t

Problem: Recorded call for "COc1cc(/C=N/n2c(-c3ccccc3)n[nH]c2=O)cc(OC)c1OC" ?
Result: f

Problem: Recorded call for "CSc1c(C#N)c(N)nc2c(/N=N\c3ccc(Cl)cc3)c(N)nn12" ?
Result: f

Problem: Recorded call for "CCOC(=O)C1(C(=O)OCC)[C@H](c2ccccc2)C2=NO[C@@H]3CCC[C@H]1[C@H]23" ?
Result: f
